These data points were gathered from patent US20080182978A1.

Experimental target: human NGF (Homo sapiens, UniProt P01138)
Sequence (P01138 122-241): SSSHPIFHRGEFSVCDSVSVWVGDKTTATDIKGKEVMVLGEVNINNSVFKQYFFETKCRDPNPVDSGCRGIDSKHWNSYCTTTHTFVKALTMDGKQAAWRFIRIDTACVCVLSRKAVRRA
Experiment notes: BIAcore screening assay of Fab library clones (koff)
Format: binding
Condition label: Table 6: single CDR H3 or L3 mutation in 8L2-6D5 template
For each entry below, report its koff value.
Give bare numbers, in s⁻¹.

Molecule	Uom	Observed
G103A: 8L2-6D5 template with CDR H3 mutation G103A (SEQ ID NO:49) (antibody, V domains shown) VH: QVQLQESGPGLVKPSETLSLTCTVSGFSLIGYDINWIRQPPGKGLEWIGMIWGDGTTDYNSALKSRVTISKDTSKNQFSLKLSSVTAADTAVYYCARGGYYYATSYYFDYWGQGTLVTVS VL: DIQMTQSPSSLSASVGDRVTITCRASQDISNHLNWYQQKPGKAPKLLIYYISRFHSGVPSRFSGSGSGTDFTFTISSLQPEDIATYYCQQSKTLPYTFGQGTKLEIKRT	s⁻¹	0.00016
T104S: 8L2-6D5 template with CDR H3 mutation T104S (antibody, V domains shown) VH: QVQLQESGPGLVKPSETLSLTCTVSGFSLIGYDINWIRQPPGKGLEWIGMIWGDGTTDYNSALKSRVTISKDTSKNQFSLKLSSVTAADTAVYYCARGGYYYGSSYYFDYWGQGTLVTVS VL: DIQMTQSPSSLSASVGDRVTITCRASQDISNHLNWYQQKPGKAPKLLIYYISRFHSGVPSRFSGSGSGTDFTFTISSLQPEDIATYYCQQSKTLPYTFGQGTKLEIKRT	s⁻¹	0.0022
S105T: 8L2-6D5 template with CDR H3 mutation S105T (SEQ ID NO:48) (antibody, V domains shown) VH: QVQLQESGPGLVKPSETLSLTCTVSGFSLIGYDINWIRQPPGKGLEWIGMIWGDGTTDYNSALKSRVTISKDTSKNQFSLKLSSVTAADTAVYYCARGGYYYGTTYYFDYWGQGTLVTVS VL: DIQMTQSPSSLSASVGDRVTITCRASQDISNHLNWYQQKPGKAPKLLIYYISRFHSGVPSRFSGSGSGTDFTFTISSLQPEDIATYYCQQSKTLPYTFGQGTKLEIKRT	s⁻¹	0.00064
Y101W: 8L2-6D5 template with CDR H3 mutation Y101W (SEQ ID NO:46) (antibody, V domains shown) VH: QVQLQESGPGLVKPSETLSLTCTVSGFSLIGYDINWIRQPPGKGLEWIGMIWGDGTTDYNSALKSRVTISKDTSKNQFSLKLSSVTAADTAVYYCARGGYWYGTSYYFDYWGQGTLVTVS VL: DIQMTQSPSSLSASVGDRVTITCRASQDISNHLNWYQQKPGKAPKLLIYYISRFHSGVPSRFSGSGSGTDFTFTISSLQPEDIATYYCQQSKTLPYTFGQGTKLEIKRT	s⁻¹	0.00056
Y110K: 8L2-6D5 template with CDR H3 mutation Y110K (antibody, V domains shown) VH: QVQLQESGPGLVKPSETLSLTCTVSGFSLIGYDINWIRQPPGKGLEWIGMIWGDGTTDYNSALKSRVTISKDTSKNQFSLKLSSVTAADTAVYYCARGGYYYGTSYYFDKWGQGTLVTVS VL: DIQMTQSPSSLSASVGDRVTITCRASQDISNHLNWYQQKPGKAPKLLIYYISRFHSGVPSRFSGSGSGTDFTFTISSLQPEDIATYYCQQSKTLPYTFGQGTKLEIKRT	s⁻¹	0.0014

Return reported koff values for all items listed beneath this line.
1. Y100R: 8L2-6D5 template with CDR H3 mutation Y100R (antibody, V domains shown) VH: QVQLQESGPGLVKPSETLSLTCTVSGFSLIGYDINWIRQPPGKGLEWIGMIWGDGTTDYNSALKSRVTISKDTSKNQFSLKLSSVTAADTAVYYCARGGRYYGTSYYFDYWGQGTLVTVS VL: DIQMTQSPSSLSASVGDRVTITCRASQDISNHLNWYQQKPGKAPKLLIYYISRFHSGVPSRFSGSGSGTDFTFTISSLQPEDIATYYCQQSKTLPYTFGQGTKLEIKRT
2. Y106R: 8L2-6D5 template with CDR H3 mutation Y106R (antibody, V domains shown) VH: QVQLQESGPGLVKPSETLSLTCTVSGFSLIGYDINWIRQPPGKGLEWIGMIWGDGTTDYNSALKSRVTISKDTSKNQFSLKLSSVTAADTAVYYCARGGYYYGTSRYFDYWGQGTLVTVS VL: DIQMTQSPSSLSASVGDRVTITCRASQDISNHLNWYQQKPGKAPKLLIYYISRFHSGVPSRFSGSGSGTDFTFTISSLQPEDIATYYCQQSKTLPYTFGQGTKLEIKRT
3. Y110R: 8L2-6D5 template with CDR H3 mutation Y110R (antibody, V domains shown) VH: QVQLQESGPGLVKPSETLSLTCTVSGFSLIGYDINWIRQPPGKGLEWIGMIWGDGTTDYNSALKSRVTISKDTSKNQFSLKLSSVTAADTAVYYCARGGYYYGTSYYFDRWGQGTLVTVS VL: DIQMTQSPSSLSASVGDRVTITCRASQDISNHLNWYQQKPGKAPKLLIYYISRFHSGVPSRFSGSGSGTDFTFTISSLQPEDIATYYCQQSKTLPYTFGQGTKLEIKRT
4. Y110T: 8L2-6D5 template with CDR H3 mutation Y110T (antibody, V domains shown) VH: QVQLQESGPGLVKPSETLSLTCTVSGFSLIGYDINWIRQPPGKGLEWIGMIWGDGTTDYNSALKSRVTISKDTSKNQFSLKLSSVTAADTAVYYCARGGYYYGTSYYFDTWGQGTLVTVS VL: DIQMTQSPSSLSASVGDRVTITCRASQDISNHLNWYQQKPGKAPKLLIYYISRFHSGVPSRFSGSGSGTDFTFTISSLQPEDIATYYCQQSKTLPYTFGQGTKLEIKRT

Reply text:
1: 0.0011; 2: 0.0016; 3: 0.0016; 4: 0.0017
